target: mAChR M1 (UniProt P11229); assay: In vitro cellular calcium flux assay, positive allosteric modulator mode, mAChR M1; assay type: cell-based, human; details: PAM mode with EC20 carbachol, BHK cells expressing mAChR M1, Examples 76-80 and 82-89 tested in slightly modified procedure
pEC50 for positive allosteric modulation values for the compounds below.

INSERT INTO measurements (compound, target_under_test, measurement_kind, result) VALUES
  ('O=C(NC1CCCOC1)c1cn(Cc2ccc(-n3cccn3)cc2)c2cccnc12 (racemic) [Example 49]', 'mAChR M1 (UniProt P11229)', 'pEC50 for positive allosteric modulation', 5.6),
  ('O=C(N[C@@H]1CCCC[C@H]1O)c1cn(Cc2ccc(-c3ccc(F)cc3)cc2)c2cccnc12 (racemic) [Example 46]', 'mAChR M1 (UniProt P11229)', 'pEC50 for positive allosteric modulation', 6.5),
  ('Cn1cnc(-c2ccc(Cn3cc(C(=O)N[C@H]4CCCC[C@@H]4O)c4ncccc43)cc2)c1 [Example 43]', 'mAChR M1 (UniProt P11229)', 'pEC50 for positive allosteric modulation', 8.0),
  ('COc1cc(Cn2cc(C(=O)N[C@H]3CCOC[C@@H]3O)c3nccc(C)c32)ccn1 (single isomer, unassigned) [Example 85]', 'mAChR M1 (UniProt P11229)', 'pEC50 for positive allosteric modulation', 7.3),
  ('N#Cc1ccc(Cn2cc(C(=O)N[C@H]3CCCC[C@@H]3O)c3nccc(Cl)c32)cn1 [Example 70]', 'mAChR M1 (UniProt P11229)', 'pEC50 for positive allosteric modulation', 7.0);

Let us move to another entry and its pEC50 for positive allosteric modulation.
// lookup pEC50 for positive allosteric modulation | system=mAChR M1 (UniProt P11229) | key= O=C(N[C@H]1CCCC[C@@H]1O)c1cn(Cc2ccc(F)c(F)c2)c2cccnc12 [Example 94] 6.6

Taken from patent US20150094328A1.
